assay notes: caspase-8 TRAIL sensitization, hit retest, confirmation, cell-based, NB7+caspase-8, with/without TRAIL, luminescence panel (AID 651596)
condition description: NB7 neuroblastoma + caspase-8, without TRAIL, luminescence viability, without TRAIL, mean of runs, at 10 µM
measure name: activity (%)
Response body: numeric value in %, unit text excluded.

Sample records with activity:
[[record]]
molecule = "CCCCn1c(SCC(=O)Nc2nnc(CC)s2)nc2c1c(=O)n(C)c(=O)n2C"
endpoint_unit = "%"
reported_value = 70.1

[[record]]
molecule = "Cc1ccc(Cn2ncc(Cl)c(Cl)c2=O)cc1"
endpoint_unit = "%"
reported_value = 99.3

[[record]]
molecule = "Cc1cc(C(=O)Cn2nnc3ccccc3c2=O)c(C)n1Cc1cccs1"
endpoint_unit = "%"
reported_value = 58.3

[[record]]
molecule = "CCN(CC)c1ccc(/C=N/NC(=O)c2ccccn2)cc1"
endpoint_unit = "%"
reported_value = 45.4

[[record]]
molecule = "COc1ccc(-c2cc(C(=O)OCC(=O)N3CCOCC3)c3ccccc3n2)cc1"
endpoint_unit = "%"
reported_value = 49.6


Data request: Requested field: activity. Item: O=C(Nc1nc(=O)c2ccccc2s1)c1ccc(F)cc1
Data returned: 72.2

Data request: Query: activity; subject: Cc1cccn2c(=O)c3cc(C(=O)NCCc4ccccc4)c(=N)n(Cc4ccco4)c3nc12
Data returned: 5.95

Data request: Which activity is listed for CCOc1ccc(-c2cc(C(=O)N3CCC(C)CC3)c3ccccc3n2)cc1 ?
Data returned: 47.2

Data request: Would you kindly share the measured activity for Cc1ccc(C(=O)Nc2ncc([N+](=O)[O-])s2)cc1 ?
Data returned: 62.8

* * *

Consider the following molecules and their measured activity readings.
assay notes: caspase-8 TRAIL sensitization, hit retest, confirmation, cell-based, NB7+caspase-8, with/without TRAIL, luminescence panel (AID 651596)
condition description: NB7 neuroblastoma + caspase-8, without TRAIL, luminescence viability, without TRAIL, mean of runs, at 10 µM
// return numeric value only (unit: %, not printed)

[[record]]
molecule = "Nc1ccc(-c2cnc(-c3ccc(N)cc3)nc2)cc1"
reported_value = 71.7


Data request: Suppose we examine the molecule O=C(Oc1cccc(/C=N/NC(=O)c2ccccn2)c1)c1ccc([N+](=O)[O-])cc1 ; what activity value has been reported?
Data returned: 20.2

* * *

assay notes: cytotoxicity in PPC-1 cells, confirmation, cytotoxicity control for TRAIL apoptosis potentiator project, cell-based, ATP content luminescence (AID 1447);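 note: 0% = DMSO-treated cells and 100% = wells holding medium but no cells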
condition description: PPC-1 viability, ATPlite luminescence, overnight; at 5 µM; stronger effect = higher value
The other results are listed elsewhere or left out.
measure name: cytotoxicity (%)
Value expressed in %; do not type the unit.

Consider the reported cytotoxicity for these compounds:
[[record]]
compound = "Cc1ccc(-c2cn3cc(C)ccc3n2)cc1"
reported_value = 85.8

[[record]]
compound = "O=C(CSc1nnc(-c2ccc([N+](=O)[O-])cc2)o1)Nc1ccccn1"
reported_value = 57

[[record]]
compound = "CCOc1ccc(NC(=O)NNC(=O)c2ccc(Cl)cc2Cl)cc1"
reported_value = -11.6

[[record]]
compound = "COc1ccc(C(=O)/C=C/Nc2ccccn2)cc1"
reported_value = 76.8

[[record]]
compound = "O=C(NCC12CC3CC(C1)CC(CNC(=O)N1CCCC1)(C3)C2)N1CCCC1"
reported_value = -1.2

[[record]]
compound = "CCOc1ccc(-c2ccc(SCC(=O)N3CCOCC3)nn2)cc1"
reported_value = 57.7

[[record]]
compound = "CS(=O)(=O)N1CCN(C(=O)c2cc3ccccc3oc2=O)CC1"
reported_value = 9.4

[[record]]
compound = "Clc1ccc2nc(-c3ccccc3)nc(C(Cl)Cl)c2c1"
reported_value = 76.5


Proceeding to the next compound to report its cytotoxicity.
Data request: I'd like to know its cytotoxicity. The compound in question is CCOc1cc(N2CCOCC2)c(OCC)cc1NC(=O)c1cc(C)nc2ccccc12
Data returned: -9.1

* * *

target entity: Sentrin-specific protease 7 (Homo sapiens)
assay notes: SENP7 protease inhibitors, retest, confirmation, biochemical, luminescence, single concentration (AID 488917)
condition description: recombinant SENP7, Z-RLRGG-aminoluciferin luminescence, 40 min; at 12.5 µM; stronger effect = higher value
The other results are listed elsewhere or left out.
measure name: inhibition (%)
API: value field is a number in %; no unit string.

[[record]]
compound = "Cc1sc(NC(=O)c2ccc3ncsc3c2)c(C(N)=O)c1C"
measure_name = "inhibition"
endpoint_unit = "%"
reported_value = -2.8

[[record]]
compound = "O=c1c2ccccc2ncn1/N=C/c1ccccc1"
measure_name = "inhibition"
endpoint_unit = "%"
reported_value = 97

[[record]]
compound = "COCCn1nnnc1C(c1cc2ccc(OC)cc2[nH]c1=O)N1CCc2ccccc2C1 (stereo unspecified)"
measure_name = "inhibition"
endpoint_unit = "%"
reported_value = 2.5

[[record]]
compound = "C/C(=N\\NC(=O)CNc1cccc2ccccc12)c1ccc(Br)s1"
measure_name = "inhibition"
endpoint_unit = "%"
reported_value = -3.4

[[record]]
compound = "CCNc1nc(N)nc(Oc2ccc(OCC)nn2)n1"
measure_name = "inhibition"
endpoint_unit = "%"
reported_value = -2


Let's switch to this compound now.
Data request: Look up inhibition for this compound: Cc1ccc(NC(=O)c2sccc2C)cc1[N+](=O)[O-]
Data returned: 95.7

* * *

target entity: Tumor necrosis factor receptor superfamily member 10B (Homo sapiens)
assay notes: caspase-8 TRAIL sensitization, hit retest, confirmation, cell-based, NB7+caspase-8, with/without TRAIL, luminescence panel (AID 651596)
condition description: NB7 neuroblastoma + caspase-8, TRAIL sensitization, luminescence viability, with TRAIL, mean of runs, at 10 µM, stronger effect = higher value
Item-by-item account of activity
Give a bare numeral; the unit % is implied.

Solved cases below.
[[record]]
molecule = "C#CCN(C[C@@H]1[C@@H](OC(=O)NCC2CCCCC2)[C@@H](OC(=O)NCC2CCCCC2)Cn2c(=O)ccc(=O)n21)S(=O)(=O)c1ccc(C)cc1"
measure_name = "activity"
endpoint_unit = "%"
reported_value = 97.7

[[record]]
molecule = "CCc1ccc(CNC(=O)Cc2ccc(NC(=O)C3=C(C)OCCS3)cc2)cc1"
measure_name = "activity"
endpoint_unit = "%"
reported_value = 58.8

[[record]]
molecule = "NC(N)=N/N=C/c1ccc(OCc2ccc(Cl)cc2Cl)cc1"
measure_name = "activity"
endpoint_unit = "%"
reported_value = 58.8

[[record]]
molecule = "CC1CCN(c2ccc(-c3ccc(NC(=O)C(F)(F)F)cc3)nn2)CC1"
measure_name = "activity"
endpoint_unit = "%"
reported_value = 94.6

[[record]]
molecule = "COc1cccc(NC(=O)Nc2nc(-c3ccc(OC)c(OC)c3)cs2)c1"
measure_name = "activity"
endpoint_unit = "%"
reported_value = 98.5


Data request: Reported activity for Cc1ccc(-c2nc(N/N=C/c3cccc([N+](=O)[O-])c3)c3ccccc3n2)cc1 : what is it?
Data returned: 70.8

Data request: I would be grateful if you could share the reported activity for COc1ccccc1NC(CC(=O)c1ccccc1)C(=O)OCC(=O)c1ccc(Br)cc1 (configuration not stated) .
Data returned: 65.4

Data request: Requested field: activity. Item: COc1ccc(C2NN=C(c3ccc(C)cc3)S2)cc1 (configuration not stated)
Data returned: 51.8

* * *

Here the recorded inhibition is given for each entry.
assay notes: inhibitors of PAF-induced NFkB signaling in CF airway cells, dose response, cell-based, uHTS hits, panel, cytotoxicity readout (AID 624344)
condition description: CF bronchial epithelial cells, PAF-induced NFkB reporter inhibition, with PAF, run 1; at 79 µM (top of the series) unless noted
Use % as the unit, but write only the number.

Observe how each entry below is paired with its result.
[[record]]
compound_structure_string = "COc1cccc(-c2ccc3ncnc(NCc4ccc5c(c4)OCO5)c3c2)c1"
measure_name = "inhibition"
reported_value = 97.6

[[record]]
compound_structure_string = "CS(=O)(=O)c1ccc2nc(NC(=O)Nc3cccc(Cl)c3)sc2c1"
measure_name = "inhibition"
reported_value = 79.3

[[record]]
compound_structure_string = "Nc1nc(N)nc(-c2ccc(Cl)c(Cl)c2)n1"
measure_name = "inhibition"
reported_value = 116

[[record]]
compound_structure_string = "O=C(Nc1ccc(F)cc1)Nc1ccc(N2CCCC2)c(S(=O)(=O)Nc2ccccc2Cl)c1"
measure_name = "inhibition"
reported_value = 111


Data request: Look up inhibition for this compound: C=C(C)COc1ccc(-c2[nH]ncc2-c2ccc(OC)cc2)c(O)c1
Data returned: 114

Data request: Query: inhibition; subject: C=CCc1cc(S(=O)(=O)c2ccc(O)c(CC=C)c2)ccc1O
Data returned: 111

* * *

assay notes: PMA/ionomycin-induced NF-kB reporter inhibitors, Jurkat retest, confirmation, T-cell NF-kB inhibitor project, cell-based, luminescence, single concentration (AID 435020);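 note: plate controls were PMA/ionomycin stimulated DMSO wells for no effect and unstimulated DMSO wells for full effect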
condition description: Jurkat NF-kB luciferase, 16 h, at 4 µM
Some of the results follow. Calls of active or inactive are those of the source.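 How the source made its calls: active means inhibition reaching about 45% at 4 µM in either replicate (limit read from the data); inactive means the rest.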
// classify into T for active, F for inactive

[[record]]
molecule = "Cc1c(C(=O)Nc2ccccn2)oc2ccc(Br)cc12"
label_value = "F"

[[record]]
molecule = "C[C@@H]1C[C@@H]2O[C@H]2/C=C\\C=C\\C(=O)Cc2c(Cl)c(O)cc(O)c2C(=O)O1"
label_value = "T"

[[record]]
molecule = "COc1cc(C(=O)NN(CCC#N)C2=NS(=O)(=O)c3ccccc32)cc(OC)c1OC"
label_value = "F"


Data request: Dear all, I need the recorded test outcome for COc1ccc(CNS(=O)(=O)c2cc(-c3cc(C)no3)ccc2C(C)C)cc1 , thank you.
Data returned: F

Data request: Each molecule tested received a call. Report the one for O=C(Nc1ccc2c(c1)OCCO2)C1CCCN(c2ncccn2)C1 (stereo not given) .
Data returned: F
